# targetDesc: T1, human C5a receptor (human, UniProt P21730 1-350)
# T1 construct: whole, on cells; also called C5aR-RBL cells; RBL-C5aR cells
# T1 sequence (looked up): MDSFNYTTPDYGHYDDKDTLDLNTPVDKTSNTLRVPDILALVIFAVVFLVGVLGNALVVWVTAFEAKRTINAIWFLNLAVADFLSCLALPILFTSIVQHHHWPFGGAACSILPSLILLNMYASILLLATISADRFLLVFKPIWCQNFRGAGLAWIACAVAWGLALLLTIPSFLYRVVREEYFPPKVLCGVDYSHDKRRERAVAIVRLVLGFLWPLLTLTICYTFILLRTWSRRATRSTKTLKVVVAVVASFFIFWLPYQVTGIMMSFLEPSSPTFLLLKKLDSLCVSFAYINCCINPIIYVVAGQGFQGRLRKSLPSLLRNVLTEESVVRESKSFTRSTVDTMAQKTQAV
# assayDetails: competition with 125I-rhC5a tracer on RBL cells stably transfected with human C5a receptor, on ice, filtration
pIC50: −log10 of the molar value.
endpointName: pIC50

Example cases with answers are listed next.
[[record]]
binder = "C5a-(1-66,Cys27Ala)-A8B-Cys73 (ligand, also called Ab8-Cys73; 67-FKRSLLC-73) TLQKKIEEIAAKYKHSVVKKCCYDGAAVNNDETCEQRAARISLGPRCIKAFTECCVVASQLRANISFKRSLLC"
measurement = 7.43

[[record]]
binder = "C5a-(1-66,Cys27Ala)-A8B-Leu70-Tyr73 (ligand, also called 67-FKRLLLY-73) TLQKKIEEIAAKYKHSVVKKCCYDGAAVNNDETCEQRAARISLGPRCIKAFTECCVVASQLRANISFKRLLLY"
measurement = 7.67

[[record]]
binder = "C5a-(1-66,Cys27Ala)-A8B-Del.71-73 (ligand, also called C5a-(1-66, Cys27Ala)-FKRS-70; 67-FKRS-70) TLQKKIEEIAAKYKHSVVKKCCYDGAAVNNDETCEQRAARISLGPRCIKAFTECCVVASQLRANISFKRS"
measurement = 7.57

[[record]]
binder = "C5a-(1-66,Cys27Ala)-A8B-Ala69 (ligand, also called A8B-Arg69Ala) TLQKKIEEIAAKYKHSVVKKCCYDGAAVNNDETCEQRAARISLGPRCIKAFTECCVVASQLRANISFKASLLR"
measurement = 7.52

[[record]]
binder = "C5a-(1-66,Cys27Ala)-A8B (ligand, Mutein of human C5a, expressed in the E. coli periplasm without a fusion partner and purified on mAb 561; also called C5aRA A8B; mutein A8B) TLQKKIEEIAAKYKHSVVKKCCYDGAAVNNDETCEQRAARISLGPRCIKAFTECCVVASQLRANISFKRSLLR"
measurement = 7.45


I: C5a-(1-66,Cys27Ala)-A8B-Leu70 (ligand, also called 67-FKRLLLR-73) TLQKKIEEIAAKYKHSVVKKCCYDGAAVNNDETCEQRAARISLGPRCIKAFTECCVVASQLRANISFKRLLLR
II: recombinant human C5a (ligand, 74-residue recombinant human C5a; also called rhC5a; rC5a) TLQKKIEEIAAKYKHSVVKKCCYDGACVNNDETCEQRAARISLGPRCIKAFTECCVVASQLRANISHKDMQLGR
III: C5a-(1-66,Cys27Arg)-A8B (ligand, also called A8B-Arg27; A8B Arg 27) TLQKKIEEIAAKYKHSVVKKCCYDGARVNNDETCEQRAARISLGPRCIKAFTECCVVASQLRANISFKRSLLR
IV: C5a-(1-66,Cys27Ala)-A8B-Asp69 (ligand, also called A8B-Arg69Asp) TLQKKIEEIAAKYKHSVVKKCCYDGAAVNNDETCEQRAARISLGPRCIKAFTECCVVASQLRANISFKDSLLR
Output the entries ranked by pIC50 from maximum down to minimum. Give your ranking as a list of the labels in the requested order.
II, IV, I, III
(II: 8.57, IV: 8.27, I: 7.64, III: 7.37)
